# Test system: WT cell line SK-BR-3
# METHOD_SUMMARY: Phospho-AKT (Ser473) Inhibition Assay (HTRF), SK-BR-3
# Type: cell-based
# CONDITIONS_USED: Homo sapiens; SK-BR-3, 1 hour treatment; read-out: p-AKT Inhibition assay (S473) IC50 SK-BR-3
METRIC_NAME: IC50 (µM)

Worked set:
{"COMPOUND": "Cc1cc(C(C)Nc2ccccc2C(=O)O)c2cc(/C=C/c3ccccc3)n(C)c(=O)c2c1 (centres unmarked) [Example 44]", "ENDPOINT_UNIT": "µM", "IC50": 2.13}
{"COMPOUND": "Cc1cc([C@@H](C)Nc2ccccc2C(=O)O)c2cc(-c3ccccc3)n(C)c(=O)c2c1 [Example 30]", "ENDPOINT_UNIT": "µM", "IC50": 2.5}
{"COMPOUND": "Cc1cc(C(C)Nc2ccccc2C(=O)O)c2cc(C#Cc3cnn(C)c3)n(C)c(=O)c2c1 (centres unmarked) [Example 80]", "ENDPOINT_UNIT": "µM", "IC50": 3.08}
{"COMPOUND": "Cc1cc(C(C)Nc2ccccc2S(C)(=O)=O)c2cc(-c3ccccc3)n(C)c(=O)c2c1 (centres unmarked) [Example 82]", "ENDPOINT_UNIT": "µM", "IC50": 2.02}
{"COMPOUND": "Cc1cc(C(C)Nc2ccccc2C(=O)O)c2cc(C#Cc3ccccc3)n(C)c(=O)c2c1 (centres unmarked) [Example 43]", "ENDPOINT_UNIT": "µM", "IC50": 1.64}

1 = COC1(c2ccc(-c3cc4c(C(C)Nc5ccccc5C(=O)O)cc(C)cc4c(=O)n3C)cc2)CCOCC1 (centres unmarked) [Example 74]
2 = Cc1cc(C(C)Nc2ccccc2C(=O)O)c2cc(C#Cc3ccn(C)n3)n(C)c(=O)c2c1 (centres unmarked) [Example 88]
3 = Cc1cc(C(C)Nc2ccccc2C(=O)O)c2cc(-c3cccc(C(F)(F)F)c3)n(C)c(=O)c2c1 (centres unmarked) [Example 50]
(Q) Put these in order: smallest IC50 first, largest last. Provide the labels, sequenced as the question asks.
(A) 2, 1, 3
